Target: BSEP (Homo sapiens, UniProt O95342)
Sequence (O95342 whole entry): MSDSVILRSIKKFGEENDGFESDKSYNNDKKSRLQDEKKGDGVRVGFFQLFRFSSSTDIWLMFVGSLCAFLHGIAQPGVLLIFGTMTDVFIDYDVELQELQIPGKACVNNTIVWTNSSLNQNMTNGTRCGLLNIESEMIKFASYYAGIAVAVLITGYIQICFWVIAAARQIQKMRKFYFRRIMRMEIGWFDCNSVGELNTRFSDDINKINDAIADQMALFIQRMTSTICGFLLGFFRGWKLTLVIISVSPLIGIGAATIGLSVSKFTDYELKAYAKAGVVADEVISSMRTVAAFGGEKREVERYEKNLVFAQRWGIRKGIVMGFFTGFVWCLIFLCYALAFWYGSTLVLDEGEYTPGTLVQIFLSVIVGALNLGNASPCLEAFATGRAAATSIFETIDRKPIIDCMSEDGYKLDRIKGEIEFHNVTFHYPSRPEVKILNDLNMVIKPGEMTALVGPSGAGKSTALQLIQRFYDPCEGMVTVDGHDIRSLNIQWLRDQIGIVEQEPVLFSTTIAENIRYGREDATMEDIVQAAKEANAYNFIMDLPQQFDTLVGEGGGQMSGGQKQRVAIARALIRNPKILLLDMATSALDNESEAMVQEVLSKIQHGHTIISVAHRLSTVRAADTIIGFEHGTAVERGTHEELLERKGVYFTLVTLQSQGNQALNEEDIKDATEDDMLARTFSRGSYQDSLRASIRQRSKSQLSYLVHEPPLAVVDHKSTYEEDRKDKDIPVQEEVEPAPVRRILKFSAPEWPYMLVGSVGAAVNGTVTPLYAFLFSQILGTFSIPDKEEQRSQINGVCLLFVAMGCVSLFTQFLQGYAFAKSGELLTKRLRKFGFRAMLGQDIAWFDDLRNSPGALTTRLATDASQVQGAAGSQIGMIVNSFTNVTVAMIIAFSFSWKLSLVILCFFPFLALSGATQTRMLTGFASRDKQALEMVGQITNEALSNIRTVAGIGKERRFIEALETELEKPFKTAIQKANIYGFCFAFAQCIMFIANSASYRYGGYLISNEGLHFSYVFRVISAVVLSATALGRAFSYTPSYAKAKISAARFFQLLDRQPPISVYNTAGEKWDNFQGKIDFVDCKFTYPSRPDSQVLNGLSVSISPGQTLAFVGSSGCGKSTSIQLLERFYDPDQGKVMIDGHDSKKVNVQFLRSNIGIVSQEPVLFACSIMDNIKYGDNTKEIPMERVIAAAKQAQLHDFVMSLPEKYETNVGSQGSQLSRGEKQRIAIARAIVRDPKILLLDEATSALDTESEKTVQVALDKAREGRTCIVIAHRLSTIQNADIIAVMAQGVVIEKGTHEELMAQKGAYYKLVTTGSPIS
Assay: Inhibition of BSEP in cryopreserved sandwich-cultured human hepatocytes by measuring reduction in TCA biliary clearance using taurocholic acid as substrate at 50 uM relative to control
Assay type: cell-based, Hepatocyte
Details: cryopreserved sandwich-cultured hepatocytes, probe taurocholic acid
Classification field: enter Condition met for inhibition at 50 µM values not below 50%, Condition not met for values below it.

The following molecules have reported results that may help.
> print(dat)
                                test.smiles              label
1  CCC[C@@H](C)OC(=O)Nc1c(C)noc1-c1ccc(NC(=O)[C@H]2CCCC[C@@H]2C(=O)O)c(C)n1  Condition not met
2  Cc1nc(-c2onc(C)c2NC(=O)O[C@H](C)c2ccccn2)ccc1NC(=O)[C@H]1CCCC[C@@H]1C(=O)O  Condition not met
3  Cc1nc(-c2snc(C)c2NC(=O)O[C@H](C)c2ccccc2Cl)ccc1NC(=O)[C@H]1CCCC[C@@H]1C(=O)O      Condition met
4  Cc1noc(-c2ccc(NC(=O)[C@@H]3CCCC[C@H]3C(=O)O)cc2)c1NC(=O)O[C@H](C)c1ccccc1Cl      Condition met
5  Cc1nc(-c2onc(C)c2NC(=O)O[C@H](C)c2ccccc2)ccc1NC(=O)[C@H]1CCCC[C@@H]1C(=O)O  Condition not met

Attention now turns to another entry.
Dear colleague, could you confirm whether "Cc1nc(-c2onc(C)c2CNC(=O)O[C@H](C)c2ccccc2Cl)ccc1NC(=O)[C@H]1CCCC[C@@H]1C(=O)O" has inhibition at 50 µM at or above 50%?
Condition met
